Listed below: ϕ0 values for each entry.
- assay_procedure: Lipophilicity via RP-HPLC
- Type: physicochemical
- cond: CN column
Give only the figure.

Here is how some compounds turned out for ϕ0.
- compound: "O=C(O)c1ccc(O)cc1O [2,4-DHB, 2,4-Dihydroxybenzoic acid]"
  ϕ0: 1.15
- compound: "O=C(O)c1c(O)cccc1O [2,6-DHB, 2,6-dihydroxybenzoic acid]"
  ϕ0: 1.08
- compound: "O=C(O)c1cccc(O)c1O [2,3-DHB, 2,3-Dihydroxybenzoic acid]"
  ϕ0: 1.16

(Q) Which ϕ0 value is on record for O=C(O)c1cc(O)c(O)c(O)c1 [3,4,5-THB, 3,4,5-trihydroxybenzoic acid] ?
(A) 1.06

(Q) Which ϕ0 value is on record for O=C(O)c1cc(O)cc(O)c1 [3,5-DHB, 3,5-dihydroxybenzoic acid] ?
(A) 1.07

(Q) Which ϕ0 value is on record for O=C(O)c1ccc(O)c(O)c1 [3,4-DHB, 3,4-dihydroxybenzoic acid] ?
(A) 1.08

----------
- assay_procedure: Lipophilicity via RP-HPLC
- Type: physicochemical
- cond: IAM column
quantity: ϕ0
Give only the figure.

Here is how some compounds turned out for ϕ0.
- compound: "O=C(O)c1cccc(O)c1O [2,3-DHB, 2,3-Dihydroxybenzoic acid]"
  reported_value: 1.08
- compound: "O=C(O)c1cc(O)cc(O)c1 [3,5-DHB, 3,5-dihydroxybenzoic acid]"
  reported_value: 1.16
- compound: "O=C(O)c1ccc(O)c(O)c1 [3,4-DHB, 3,4-dihydroxybenzoic acid]"
  reported_value: 1.13
- compound: "O=C(O)c1ccc(O)cc1O [2,4-DHB, 2,4-Dihydroxybenzoic acid]"
  reported_value: 1.00
- compound: "O=C(O)c1cc(O)c(O)c(O)c1 [3,4,5-THB, 3,4,5-trihydroxybenzoic acid]"
  reported_value: 1.44

Now for a further compound.
(Q) Which ϕ0 value is on record for O=C(O)c1c(O)cccc1O [2,6-DHB, 2,6-dihydroxybenzoic acid] ?
(A) 1.14

----------
- Test system: Candida albicans (PCM 2566-FY)
- assay_procedure: MIC by serial dilution in agar medium
- Type: cell-based
- cond: read-out: MIC
Listed below: MIC values for each entry.
Express your answer in mg/L, writing the number without its unit.

- molecule: "O=C(O)c1cc(O)c(O)c(O)c1 [3,4,5-THB, 3,4,5-trihydroxybenzoic acid]"
  quantity: "MIC"
  uom: "mg/L"
  reported_value: 3000

Now for a further molecule.
(Q) Which MIC value is on record for O=C(O)c1cc(O)cc(O)c1 [3,5-DHB, 3,5-dihydroxybenzoic acid] ?
(A) 2000

----------
- assay_procedure: Lipophilicity via RP-HPLC
- Assay type: physicochemical
- cond: PHE column
Give rule met when the value for log kw is at least 1. Give rule not met when it is less.

Sample answers from the record:
- molecule: "O=C(O)c1cc(O)c(O)c(O)c1 [3,4,5-THB, 3,4,5-trihydroxybenzoic acid]"
  answer_label: "rule not met"
- molecule: "O=C(O)c1cccc(O)c1O [2,3-DHB, 2,3-Dihydroxybenzoic acid]"
  answer_label: "rule met"
- molecule: "O=C(O)c1cc(O)cc(O)c1 [3,5-DHB, 3,5-dihydroxybenzoic acid]"
  answer_label: "rule met"

(Q) // inclusive: log kw at least 1? input: O=C(O)c1c(O)cccc1O [2,6-DHB, 2,6-dihydroxybenzoic acid]
(A) rule not met

(Q) // inclusive: log kw at least 1? input: O=C(O)c1ccc(O)c(O)c1 [3,4-DHB, 3,4-dihydroxybenzoic acid]
(A) rule met

(Q) // inclusive: log kw at least 1? input: O=C(O)c1ccc(O)cc1O [2,4-DHB, 2,4-Dihydroxybenzoic acid]
(A) rule met

----------
- assay_procedure: Cytotoxicity, neutral red (NR) assay
- Format: cell-based, human
- cond: human; 48 h treatment, neutral red assay; read-out: Cytotoxicity (mM) in Cell Line MDA-MB-231, IC50
quantity: IC50 at 48 h (mM)
Express your answer in mM, writing the number without its unit.

- compound: "O=C(O)c1cc(O)c(O)c(O)c1 [3,4,5-THB, 3,4,5-trihydroxybenzoic acid]"
  reported_value: 0.36

Now for a further compound.
(Q) Which IC50 at 48 h value is on record for O=C(O)c1ccc(O)cc1O [2,4-DHB, 2,4-Dihydroxybenzoic acid] ?
(A) 4.77

----------
Listed below: ϕ0 values for each entry.
- assay_procedure: Lipophilicity via RP-HPLC
- Type: physicochemical
- cond: C8 column
Give only the figure.

- molecule: "O=C(O)c1cccc(O)c1O [2,3-DHB, 2,3-Dihydroxybenzoic acid]"
  reported_value: 0.87
- molecule: "O=C(O)c1c(O)cccc1O [2,6-DHB, 2,6-dihydroxybenzoic acid]"
  reported_value: 1.05

(Q) Which ϕ0 value is on record for O=C(O)c1cc(O)c(O)c(O)c1 [3,4,5-THB, 3,4,5-trihydroxybenzoic acid] ?
(A) 0.91

----------
- System: Candida albicans (PCM 2566-FY)
- assay_procedure: MIC by serial dilution in agar medium
- Assay type: cell-based
- cond: read-out: MIC
quantity: MIC (µg/mL)
Express your answer in µg/mL, writing the number without its unit.

Here is how some molecules turned out for MIC.
- molecule: "O=C(O)c1ccc(O)cc1O [2,4-DHB, 2,4-Dihydroxybenzoic acid]"
  MIC / µg/mL: 2000
- molecule: "O=C(O)c1c(O)cccc1O [2,6-DHB, 2,6-dihydroxybenzoic acid]"
  MIC / µg/mL: 3000
- molecule: "O=C(O)c1cccc(O)c1O [2,3-DHB, 2,3-Dihydroxybenzoic acid]"
  MIC / µg/mL: 5000

(Q) Which MIC value is on record for O=C(O)c1cc(O)ccc1O [2,5-DHB, 2,5-dihydroxybenzoic acid] ?
(A) 5000
